Can you tell me TGI for the items I'm about to list?
Test system: NCI-H226 lung
Method summary: NCI tumour cell line growth inhibition, 48 h

Required: TGI, one value per molecule below.
1. O=C1CC(Cl)c2c(Cl)sc(Cl)c21 (stereo unspecified)
2. COC1=CCC2=C(CCN(C(=O)C3CCC3)C2Cc2ccc(OC)c(O)c2)C1 (stereo unspecified)
3. COc1ccc(/C=C/C(C(=O)O)C(=O)O)cc1

Result:
1. 28.8 µM
2. > 100 µM
3. > 100 µM

Each molecule below has a reported value. Please supply its TGI.
1. CC12CCC(O)CC1CCC1C2CCC2(C)C(C3=CC(=O)OC3)CCC12 (stereo unspecified)
2. NCC(=O)CCC(=O)O
3. COc1cc2c3c(n(CCCNCCN4CCOCC4)c(=O)c2cc1OC)-c1cc2c(cc1C3=O)OCO2
4. CCOC(=O)C1(C(=O)OCC)CC=C(C)CC12C(=O)Nc1ccccc12 (stereo unspecified)
5. CN(/N=C/c1ccc(Cl)c(Cl)c1)C1=NCCN1
6. Cn1c(=O)c2[nH]c(-n3nc(-c4ccccc4)cc3N)nc2n(C)c1=O
7. CCc1nc(N)nc(N)c1-c1ccc(Cl)c(N=NN(C)C)c1
8. Cc1nc2sccn2c1C(=O)OCCOCCOCCOCCOC(=O)c1c(C)nc2sccn12

Result:
["> 100 µM", "> 100 µM", "53.8 µM", "> 100 µM", "72 µM", "33.7 µM", "> 100 µM", "> 100 µM"]
